Where do the numbers come from? From paper PMC7006757.

test system: PC-3 cells; test: MTT assay, PC-3; conditions: Homo sapiens, PC-3, read-out: Inhibition rate (%, 10 μM) PC-3
# inhibition at 10 µM >= 20% gives yes (1), anything below gives no (0)

Confirm if inhibition at 10 µM reported for the compound Cn1c(COc2ccc(/C=N/c3cccc(Br)c3)cc2)nc2ccccc2c1=O is 20% or above.
no (0)

Reported inhibition at 10 µM at or above 20%? Cn1c(COc2ccc(/C=N/c3ccc(F)c(Cl)c3)cc2)nc2ccccc2c1=O
no (0)

Given the entry O=c1[nH]cc(F)c(=O)[nH]1 [5-Fluorouracil, reference compound] , answer whether its inhibition at 10 µM meets or surpasses 20%.
yes (1)

Could you please find out whether Cc1ccccc1/N=C/c1ccc(OCc2nc3ccccc3c(=O)n2C)cc1 has inhibition at 10 µM that meets 20% or exceeds it?
yes (1)

Dear colleague, could you confirm whether COc1ccc(/N=C/c2ccc(OCc3nc4ccccc4c(=O)n3C)cc2)cc1 has inhibition at 10 µM at or above 20%?
yes (1)

Entry Cc1ccc(/N=C/c2ccc(OCc3nc4ccccc4c(=O)n3C)cc2)cc1 : is its inhibition at 10 µM no less than 20%?
no (0)

Evaluate Cn1c(COc2ccc(/C=N/c3cccc(Cl)c3)cc2)nc2ccccc2c1=O : inhibition at 10 µM at minimum 20%?
no (0)

# bool: inhibition at 10 µM of Cn1c(COc2ccc(/C=N/c3c(F)cccc3F)cc2)nc2ccccc2c1=O >= 20%
yes (1)

Test whether the compound Cn1c(COc2ccc(/C=N/c3cc(F)cc(F)c3)cc2)nc2ccccc2c1=O records inhibition at 10 µM of 20% or higher.
yes (1)
